# Test system: 786-0 renal
# experimental.protocol: NCI tumour cell line growth inhibition, 48 h
Where a SMILES comes first, the peptide text is derived from it. [ ]: non-standard residue; d: D form. The star is where a group is joined. Dolaproine = CO[C@@H]([C@@H]1CCCN1)[C@@H](C)C(=O)O; Dil = CC[C@H](C)[C@H](NC)[C@@H](CC(=O)O)OC; X2 = C[C@@H](N*)[C@@H](O)c1ccccc1; NMeV = CN[C@H](C(=O)O)C(C)C
value.kind: TGI

Report value only: TGI, 786-0 renal, CCOC(=O)CCc1cccc2c1oc1c(CCNC(=O)OCC3c4ccccc4-c4ccccc43)cccc12
> 100 µM

State the measured TGI (786-0 renal) of O=C1CC[C@H](NC(=O)Cc2ccccc2)C(=O)N1
> 1250 µM

Name the recorded TGI of O=c1[nH]cnc2c1sc(=S)n2-c1ccccc1 , assay system 786-0 renal.
> 100 µM

Report measured TGI on 786-0 renal; entry: CN(C)CCCNc1ccnc2cccc([N+](=O)[O-])c12
37.1 µM

State TGI on 786-0 renal. Entry: O=c1n(-c2ccc(Cl)c(Cl)c2)c(=O)n(-c2ccc(Cl)c(Cl)c2)c(=O)n1-c1ccc(Cl)c(Cl)c1
7.84 µM

Give TGI only, for COc1ccc(-c2cn[nH]c2-c2cc(OC)c(OC)c(OC)c2)cc1OCc1ccccc1 , using 786-0 renal data.
16.2 µM

Send back 786-0 renal TGI of Cc1nc2ccccc2nc1NNc1ccccc1 only.
> 92.1 µM

Retrieve TGI on 786-0 renal; query COc1cc(C(=O)O)ccc1OS(=O)(=O)O
> 100 µM

State recorded TGI with 786-0 renal, entry CCC(=O)Nc1ccc(NCC(=O)Nc2ccc(Cl)cc2)cc1 , no comment.
35.7 µM

Name the value of TGI reported for CC(C)(C)OC(=O)C1CCC/C1=N/Nc1ccc([N+](=O)[O-])cc1[N+](=O)[O-] (stereo not drawn) when tested on 786-0 renal.
> 100 µM

Output reported TGI of the molecule NS(=O)(=O)c1ccc(NC(=S)/N=C/c2c(O)c3ccccc3oc2=O)cc1 on 786-0 renal.
> 100 µM

Give TGI only, for CC[C@H](C)[C@@H]([C@@H](CC(=O)N1CCC[C@H]1[C@H](OC)[C@@H](C)C(=O)N[C@H](C)[C@@H](O)c1ccccc1)OC)N(C)C(=O)[C@@H](NC(=O)[C@@H](NC)C(C)C)C(C)C (H-[NMeV]V[Dil][Dolaproine]-X2) , using 786-0 renal data.
> 100 µM

# assay system 786-0 renal: give TGI of CCCCC(CCCCCC(CCCC)C1NC(C)Cc2cc(OC)c(OC)cc21)C1NC(C)Cc2cc(OC)c(OC)cc21 (stereo not drawn)
3.15 µM
